# System: HOP-62 NSCLC
# Procedure Details: NCI tumour cell line growth inhibition, 48 h
Readout: TGI

INSERT INTO measurements (compound, readout, value_reported) VALUES
  ('Cc1cccc(CNc2c3ccccc3nc3ccccc23)c1', 'TGI', '16.1 µM'),
  ('O=C1OC(C(O)CO)C(C(O)CO)OC1=O (stereo not given)', 'TGI', '> 10 µM'),
  ('COc1ccc(-c2cn(C)c3c2-n2cccc2C3=O)cc1O', 'TGI', '29.3 µM'),
  ('COc1ccc(-n2nc(C)c3c(Nc4ccc(NC(=O)Nc5cccc(C(F)(F)F)c5)cc4)ncnc32)cc1', 'TGI', '3.45 µM'),
  ('CC(=O)OCC1OC(n2c(C)c(C)cc(C#N)c2=S)C(OC(C)=O)C(OC(C)=O)C1OC(C)=O (stereo not given)', 'TGI', '> 100 µM');
